- ASSAYED_TARGET: Dopamine uptake sites (transporters) (Rattus norvegicus)
- Construct: Uptake sites (transporters); Rat brain; from tissue; host or cells: rat brain
- Sequence (P23977 whole entry): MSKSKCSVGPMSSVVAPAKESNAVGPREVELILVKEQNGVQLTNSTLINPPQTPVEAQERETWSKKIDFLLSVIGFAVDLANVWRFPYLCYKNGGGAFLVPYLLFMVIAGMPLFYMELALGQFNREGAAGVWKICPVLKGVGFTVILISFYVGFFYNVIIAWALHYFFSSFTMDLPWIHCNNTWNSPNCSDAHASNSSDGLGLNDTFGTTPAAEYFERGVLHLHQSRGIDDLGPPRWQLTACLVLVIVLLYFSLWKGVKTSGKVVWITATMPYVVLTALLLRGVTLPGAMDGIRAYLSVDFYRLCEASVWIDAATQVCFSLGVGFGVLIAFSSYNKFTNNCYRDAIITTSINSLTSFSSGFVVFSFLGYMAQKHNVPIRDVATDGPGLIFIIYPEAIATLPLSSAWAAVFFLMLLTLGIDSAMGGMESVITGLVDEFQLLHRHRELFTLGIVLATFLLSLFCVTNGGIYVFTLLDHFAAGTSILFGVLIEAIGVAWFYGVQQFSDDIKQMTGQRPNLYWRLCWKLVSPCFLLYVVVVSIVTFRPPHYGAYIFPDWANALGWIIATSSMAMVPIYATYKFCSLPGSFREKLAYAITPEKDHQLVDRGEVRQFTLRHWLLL
- PROCEDURE_SUMMARY: Affinity for dopamine uptake sites (transporters), rat brain
- Format: binding
- DETAILS: read-out: K1 values, Dopamine uptake sites (transporters)
Entries annotated with measured Ki
The answer is to be given in µM; state only the numeric part.

The examples below pair each entry with its known result.
Fc1cccc([C@@H](Oc2ccccc2F)C2CCNCC2)c1 = 0.377
Fc1ccccc1O[C@@H](c1ccccc1)C1CCNCC1 = 0.52
N#Cc1cccc(O[C@H](c2ccccc2)C2CCNCC2)c1 = 0.11

Form field: reported Ki of Fc1ccc(O[C@@H](c2ccccc2)C2CCNCC2)cc1
0.821

Form field: reported Ki of Fc1cccc(O[C@H](c2ccccc2)C2CCNCC2)c1
0.461

Form field: reported Ki of Fc1ccc(O[C@H](c2ccccc2)C2CCNCC2)cc1
0.253

Form field: reported Ki of Fc1cccc(O[C@H](c2cccc(F)c2)C2CCNCC2)c1
0.113
